Target: Oatp1b2 (Mus musculus, UniProt Q9JJL3)
Sequence (Q9JJL3 whole entry): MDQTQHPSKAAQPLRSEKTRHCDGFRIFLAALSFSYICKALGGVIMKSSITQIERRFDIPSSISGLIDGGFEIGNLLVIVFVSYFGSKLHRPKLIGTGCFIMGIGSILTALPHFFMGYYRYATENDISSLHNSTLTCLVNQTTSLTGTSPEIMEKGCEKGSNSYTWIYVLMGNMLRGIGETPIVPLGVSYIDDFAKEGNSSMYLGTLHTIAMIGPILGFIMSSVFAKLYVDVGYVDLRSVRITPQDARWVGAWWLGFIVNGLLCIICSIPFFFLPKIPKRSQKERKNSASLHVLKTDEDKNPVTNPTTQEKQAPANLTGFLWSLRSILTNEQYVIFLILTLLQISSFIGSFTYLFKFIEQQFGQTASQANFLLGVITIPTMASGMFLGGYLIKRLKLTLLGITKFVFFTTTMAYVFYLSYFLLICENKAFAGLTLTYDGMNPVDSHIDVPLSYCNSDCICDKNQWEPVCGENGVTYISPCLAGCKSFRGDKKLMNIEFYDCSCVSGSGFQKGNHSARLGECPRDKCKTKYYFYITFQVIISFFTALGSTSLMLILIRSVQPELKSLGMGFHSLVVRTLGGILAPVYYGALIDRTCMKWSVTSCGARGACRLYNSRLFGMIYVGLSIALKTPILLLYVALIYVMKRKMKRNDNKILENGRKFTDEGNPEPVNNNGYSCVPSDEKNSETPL
Assay: Untargeted metabolomics of plasma from untreated wild-type and Oatp1b2(−/−) mice
Settings: plasma of untreated wild-type mice; raw area counts rescaled to median = 1
Where a name gives a salt, the structure may show the parent alone.
Provide the reported Mean value WT of each item.

Ask: // fetch Mean value WT; item: O=S(=O)(O)Oc1ccccc1 [phenol sulfate] ; system: Oatp1b2 (Mus musculus, UniProt Q9JJL3)
Reply: .879

Ask: Supply Mean value WT measured with Oatp1b2 (Mus musculus, UniProt Q9JJL3) for CCCCCCCCCCCCCCCCCC(=O)OC[C@@H](O)COP(=O)(O)OCCN [1-stearoyl-GPE (18:0)] .
Reply: .867

Ask: Give Mean value WT for this entry on Oatp1b2 (Mus musculus, UniProt Q9JJL3): O=C(O)CNC(=O)/C=C/c1ccccc1 [cinnamoylglycine]
Reply: .776

Ask: Enter measured Mean value WT, system Oatp1b2 (Mus musculus, UniProt Q9JJL3), for the compound shown: CCCCC/C=C\C/C=C\C/C=C\C/C=C\CCCC(=O)OC[C@@H](O)COP(=O)(O)OCCN [1-arachidonoyl-GPE (20:4n6)]
Reply: .803

Ask: Param request: Mean value WT | system Oatp1b2 (Mus musculus, UniProt Q9JJL3) | item O=C(O)CNC(=O)CCc1ccccc1 [phenylpropionylglycine]
Reply: .656

Ask: Please report the measured Mean value WT for O=S(=O)(O)Oc1c[nH]c2ccccc12 [3-indoxyl sulfate] tested on Oatp1b2 (Mus musculus, UniProt Q9JJL3).
Reply: .804

Ask: Provide Mean value WT, system Oatp1b2 (Mus musculus, UniProt Q9JJL3), entry CCCCCCCCCCCCCCCCCC(=O)O[C@H](COC(=O)CCCCCCCCCCCCCCC)COP(=O)([O-])OCC[N+](C)(C)C [1-palmitoyl-2-stearoyl-GPC (16:0/18:0)]
Reply: .960

Ask: Report Mean value WT from Oatp1b2 (Mus musculus, UniProt Q9JJL3) testing of CCCCCCCC/C=C\CCCCCCCC(=O)O[C@H](CO/C=C\CCCCCCCCCCCCCC)COP(=O)(O)OCCN
Reply: .895

Ask: Find the measured Mean value WT of CCCCC/C=C\C/C=C\C/C=C\C/C=C\CCCC(=O)O[C@H](CC(=O)[O-])C[N+](C)(C)C [arachidonoylcarnitine (C20:4)] with Oatp1b2 (Mus musculus, UniProt Q9JJL3) as test system.
Reply: .796

Ask: Quote Mean value WT with test system Oatp1b2 (Mus musculus, UniProt Q9JJL3) for C[C@H](CCC(=O)O[C@@H]1O[C@H](C(=O)O)[C@@H](O)[C@H](O)[C@H]1O)[C@H]1CC[C@H]2[C@@H]3[C@H](O)C[C@@H]4C[C@H](O)CC[C@]4(C)[C@H]3CC[C@]12C [CDCA-24G, chenodeoxycholate-24-glucuronide]
Reply: .0120

Ask: # lookup: Oatp1b2 (Mus musculus, UniProt Q9JJL3) Mean value WT, key = C[C@H](CCC(=O)O)[C@H]1CC[C@H]2[C@@H]3[C@@H](O)C[C@@H]4C[C@H](O)CC[C@]4(C)[C@H]3CC[C@]12C [ursodeoxycholate]
Reply: .530

Ask: // output Mean value WT; input CCCCC/C=C\C/C=C\C/C=C\C/C=C\CCCC(=O)O[C@H](CO/C=C\CCCCCCCCCCCCCC)COP(=O)([O-])OCC[N+](C)(C)C ; system Oatp1b2 (Mus musculus, UniProt Q9JJL3)
Reply: .891

Ask: Jot down Mean value WT (Oatp1b2 (Mus musculus, UniProt Q9JJL3)) of CCCCC/C=C\C/C=C\C/C=C\C/C=C\CCCC(=O)O[C@H](CO/C=C\CCCCCCCCCCCCCC)COP(=O)(O)OCCN .
Reply: .839

Ask: Give Mean value WT only, for C[C@H](CCC(=O)O)[C@H]1CC[C@H]2[C@@H]3C[C@@H](O)[C@@H]4C[C@H](O)CC[C@]4(C)[C@H]3CC[C@]12C [6-beta-hydroxylithocholate] , using Oatp1b2 (Mus musculus, UniProt Q9JJL3) data.
Reply: .0890

Ask: # return Mean value WT of Cc1ncc(CO)c(C(=O)O)c1O [pyridoxate] (system: Oatp1b2 (Mus musculus, UniProt Q9JJL3))
Reply: .902

Ask: With Oatp1b2 (Mus musculus, UniProt Q9JJL3) as the test system, provide measured Mean value WT for this compound: O=C(O)CCCCCCCCC(=O)O [sebacate (C10-DC)]
Reply: .833

Ask: Lab note: Oatp1b2 (Mus musculus, UniProt Q9JJL3) assay, enter Mean value WT for C[C@H](CCC(=O)O)[C@H]1CC[C@H]2[C@@H]3CC[C@@H]4C[C@H](O)CC[C@]4(C)[C@H]3C[C@H](OS(=O)(=O)O)[C@]12C [deoxycholic acid 12-sulfate] here
Reply: .851

Ask: Please tell me the measured Mean value WT for Cc1c(C)c2c(c(C)c1O)CC[C@@](C)(CCC[C@H](C)CCC[C@H](C)CCCC(C)C)O2 [α-tocopherol] ; system: Oatp1b2 (Mus musculus, UniProt Q9JJL3).
Reply: .707

Ask: Report Mean value WT under test system Oatp1b2 (Mus musculus, UniProt Q9JJL3) for O=C(O)CCCCCCCCCCCCCCCCCC(=O)O [nonadecanedioate (C19-DC)] .
Reply: .902

Ask: State recorded Mean value WT with Oatp1b2 (Mus musculus, UniProt Q9JJL3), entry CCCCCCCCCCCCCCCC(=O)OC[C@@H](O)COP(=O)(O)OCCN [1-palmitoyl-GPE (16:0)] , no comment.
Reply: .765

Ask: Provide measured Mean value WT on Oatp1b2 (Mus musculus, UniProt Q9JJL3) for CCCCCCCCCCCCCCCC/C=C\OC[C@@H](O)COP(=O)(O)OCCN [1-(1-enyl-stearoyl)-GPE (P-18:0)] please.
Reply: .747

Ask: Jot down Mean value WT (Oatp1b2 (Mus musculus, UniProt Q9JJL3)) of C[C@H](CCC(=O)O)[C@H]1CC[C@H]2[C@@H]3[C@H](O)[C@H](O)[C@@H]4C[C@H](O)CC[C@]4(C)[C@H]3CC[C@]12C [hyocholate] .
Reply: .251

Ask: State Mean value WT on Oatp1b2 (Mus musculus, UniProt Q9JJL3). Entry: CC(C)(O)CC(=O)O [beta-hydroxyisovalerate]
Reply: .835

Ask: Lab note: Oatp1b2 (Mus musculus, UniProt Q9JJL3) assay, enter Mean value WT for CCCCCCCC(=O)O[C@H](CC(=O)O)C[N+](C)(C)C [octanoylcarnitine (C8)] here
Reply: .910

Ask: Find Mean value WT for O=C(O)CCCCCCCCCCC(=O)O [dodecanedioate (C12-DC)] on Oatp1b2 (Mus musculus, UniProt Q9JJL3) and write it down.
Reply: .366

Ask: Give measured Mean value WT for Cc1ncc(CO)c(CN)c1O [pyridoxamine] (Oatp1b2 (Mus musculus, UniProt Q9JJL3)).
Reply: .805

Ask: Fetch value of Mean value WT on Oatp1b2 (Mus musculus, UniProt Q9JJL3) for CCCCCCCCCCCCCCCC(=O)OC[C@@H](O)COP(=O)(O)OCC(O)CO (stereo partly shown) [1-palmitoyl-GPG (16:0)] .
Reply: .371

Ask: Report Mean value WT from Oatp1b2 (Mus musculus, UniProt Q9JJL3) testing of CCCCCC(=O)NCC(=O)O [hexanoylglycine]
Reply: .880

Ask: Given CCc1ccc(OS(=O)(=O)[O-])cc1.[K+] [4-ethylphenylsulfate] , report its Mean value WT on Oatp1b2 (Mus musculus, UniProt Q9JJL3).
Reply: .238

Ask: # lookup: Oatp1b2 (Mus musculus, UniProt Q9JJL3) Mean value WT, key = CC(=O)N[C@@H](Cc1cncn1C)C(=O)O [N-acetyl-3-methylhistidine]
Reply: .878

Ask: # lookup: Oatp1b2 (Mus musculus, UniProt Q9JJL3) Mean value WT, key = O=C(O)CCCCCCCCCCCCCCCC(=O)O [heptadecanedioate (C17-DC)]
Reply: .818

----------
Biological target: Oatp1b2 (Mus musculus, UniProt Q9JJL3)
Assay: Untargeted metabolomics of plasma from untreated wild-type and Oatp1b2(−/−) mice
Settings: plasma of untreated Oatp1b2-deficient mice; raw area counts rescaled to median = 1
Structures can show the parent of a compound that is named as a salt.
Please respond with reported Mean value KO for every item in the list.
Just the number, please, no unit after it.

Ask: State Mean value KO on Oatp1b2 (Mus musculus, UniProt Q9JJL3). Entry: CCCCC/C=C\C/C=C\C/C=C\C/C=C\CCCC(=O)O[C@H](COC(=O)CCCCCCC/C=C\C/C=C\CCCCC)COP(=O)(O)OCCN
Reply: 1.26

Ask: Supply Mean value KO measured with Oatp1b2 (Mus musculus, UniProt Q9JJL3) for CC/C=C\C/C=C\C/C=C\CCCCCCCC(=O)O[C@H](COC(=O)CCCCCCC/C=C\CCCCCC)COP(=O)([O-])OCC[N+](C)(C)C .
Reply: 1.46

Ask: Provide the reported Mean value KO (system: Oatp1b2 (Mus musculus, UniProt Q9JJL3)) for Cc1ccc(O[C@@H]2O[C@H](C(=O)O)[C@@H](O)[C@H](O)[C@H]2O)cc1 [p-cresol glucuronide]
Reply: 5.92

Ask: Retrieve Mean value KO on Oatp1b2 (Mus musculus, UniProt Q9JJL3); query CCCCCCCC/C=C\CCCCCCCC(N)=O [oleamide]
Reply: 1.22

Ask: // fetch Mean value KO for CCCCCCCCCCCCCCCCC(N)=O [margaramide (17:0)] ; system: Oatp1b2 (Mus musculus, UniProt Q9JJL3)
Reply: 1.19

Ask: State recorded Mean value KO with Oatp1b2 (Mus musculus, UniProt Q9JJL3), entry C[C@H](CCC(=O)O[C@@H]1O[C@H](C(=O)O)[C@@H](O)[C@H](O)[C@H]1O)[C@H]1CC[C@H]2[C@@H]3[C@H](O)C[C@@H]4C[C@H](O)CC[C@]4(C)[C@H]3CC[C@]12C [CDCA-24G, chenodeoxycholate-24-glucuronide] , no comment.
Reply: 1.15

Ask: Consider the compound Cc1ccc(OS(=O)(=O)O)cc1 [p-cresol sulfate] tested on Oatp1b2 (Mus musculus, UniProt Q9JJL3); state its Mean value KO.
Reply: 4.66

Ask: Fill in: Mean value KO on Oatp1b2 (Mus musculus, UniProt Q9JJL3), entry C[N+]1(C)CCCC[C@H]1C(=O)[O-] [homostachydrine]
Reply: 1.09

Ask: Consider the compound CCCCC/C=C\C/C=C\CCCCCCCCCC(=O)OC(CC(=O)[O-])C[N+](C)(C)C (stereo not drawn) [dihomo-linoleoylcarnitine (C20:2)] tested on Oatp1b2 (Mus musculus, UniProt Q9JJL3); state its Mean value KO.
Reply: 1.37

Ask: For Oatp1b2 (Mus musculus, UniProt Q9JJL3), give Mean value KO of the listed compound: CCCCC/C=C\C/C=C\C/C=C\C/C=C\CCCC(=O)O[C@H](CO/C=C\CCCCCCCCCCCCCC)COP(=O)(O)OCCN
Reply: 1.13

Ask: Report Mean value KO under test system Oatp1b2 (Mus musculus, UniProt Q9JJL3) for CC/C=C\C/C=C\C/C=C\CCCCCCCC(=O)O[C@H](COC(=O)CCCCCCC/C=C\C/C=C\CCCCC)COP(=O)([O-])OCC[N+](C)(C)C [1-linoleoyl-2-linolenoyl-GPC (18:2/18:3)] .
Reply: 1.40

Ask: Report value only: Mean value KO, Oatp1b2 (Mus musculus, UniProt Q9JJL3), CCCCCCCCCCCCCCCC(=O)OC[C@@H](O)COP(=O)(O)OCC(O)CO (stereo partly drawn) [1-palmitoyl-GPG (16:0)]
Reply: 2.00

Ask: Provide measured Mean value KO on Oatp1b2 (Mus musculus, UniProt Q9JJL3) for CC/C=C\C/C=C\C/C=C\CCCCCCCC(=O)OC[C@@H](O)COP(=O)([O-])OCC[N+](C)(C)C [1-linolenoyl-GPC (18:3)] please.
Reply: 1.41

Ask: Supply Mean value KO measured with Oatp1b2 (Mus musculus, UniProt Q9JJL3) for CCCCC/C=C\C/C=C\C/C=C\C/C=C\CCCC(=O)O[C@H](CO/C=C\CCCCCCCCCCCCCCCC)COP(=O)(O)OCCN .
Reply: 1.10

Ask: // fetch Mean value KO for CC(C)CC(O)C(=O)O (stereo not drawn) [alpha-hydroxyisocaproate] ; system: Oatp1b2 (Mus musculus, UniProt Q9JJL3)
Reply: 1.80
